# target system: CLK3 (Homo sapiens)
# Construct: purchased DiscoverX
# Sequence (P49761 whole entry): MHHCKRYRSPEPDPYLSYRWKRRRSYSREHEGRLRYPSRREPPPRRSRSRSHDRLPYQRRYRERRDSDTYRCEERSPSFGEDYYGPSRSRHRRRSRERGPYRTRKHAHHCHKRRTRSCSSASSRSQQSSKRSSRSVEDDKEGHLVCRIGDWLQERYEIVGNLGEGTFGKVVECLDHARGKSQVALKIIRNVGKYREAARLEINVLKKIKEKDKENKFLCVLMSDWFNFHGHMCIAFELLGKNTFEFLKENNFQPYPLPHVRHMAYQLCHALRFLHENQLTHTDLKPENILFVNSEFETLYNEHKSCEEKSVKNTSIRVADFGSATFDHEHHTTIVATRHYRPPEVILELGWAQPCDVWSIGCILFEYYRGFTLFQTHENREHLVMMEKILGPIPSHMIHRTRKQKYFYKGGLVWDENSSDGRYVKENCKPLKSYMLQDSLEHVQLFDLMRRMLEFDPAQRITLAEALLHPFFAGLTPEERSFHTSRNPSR
# experimental protocol: scanMAX Kinase panel (DiscoverX), % control
# Assay type: binding
# assay setup: <35% = active
# Description: Specifically, for Examples 162, 160, 105, 217, 205, 96, 207, 184, 206, 221, 238, and 237 selected among the example compounds of the present invention, it was decided to measure enzyme (kinase) selectivity by DiscoverX, and the experiment was conducted using a panel for scanMAX™ Kinase analysis. […] Also, in the enzyme selectivity of the present invention, if the control percentage for each enzyme was <35% (i.e., less than 35%), it was determined to have activity against the relevant enzyme.
quantity name: remaining binding at 1 µM (%)

>>> observed("CNc1cc(Nc2ccc(C(=O)N3CCC(N4CCOCC4)CC3)c3c2OCCO3)nc2[nH]cc(C(F)(F)F)c12 [Example 160]")
13
>>> observed("CNc1cc(Nc2ccc(S(=O)(=O)N3CCC(N4CCOCC4)CC3)cc2OC)nc2[nH]cc(C(F)(F)F)c12 [Example 184]")
7.8
>>> observed("O=C(c1ccc(Nc2cc(C3CC3)c3c(C(F)(F)F)c[nH]c3n2)c2c1OCCO2)N1CCC(N2CCOCC2)CC1 [Example 221]")
60
>>> observed("CCNc1cc(Nc2ccc(C(=O)N3CCC(N4C[C@@H]5C[C@H]4CO5)CC3)c3c2OCC3)nc2[nH]cc(C(F)(F)F)c12 [Example 105]")
5.9

A: CCNc1cc(Nc2ccc(P3(=O)CCN(C4CC4)CC3)cc2OC)nc2[nH]cc(C(F)(F)F)c12 [Example 206]
B: CNc1cc(Nc2ccc(C(=O)N3CC[C@H](N4CCOCC4)C3)c3c2OCC3)nc2[nH]cc(C(F)(F)F)c12 [Example 217]
C: O=C(c1ccc(Nc2cc(C3CC3)c3c(C(F)(F)F)c[nH]c3n2)c2c1CCO2)N1CC[C@H](N2CCOCC2)C1 [Example 237]
Ask: Returns the items ordered by remaining binding at 1 µM, from maximum to minimum. Answer by writing out the labels in the requested order.
Result: A, C, B
(A: 91%, C: 58%, B: 19%)

---

# target system: LRRK2 (Homo sapiens)
# Sequence (Q5S007 970-2527 limits assumed): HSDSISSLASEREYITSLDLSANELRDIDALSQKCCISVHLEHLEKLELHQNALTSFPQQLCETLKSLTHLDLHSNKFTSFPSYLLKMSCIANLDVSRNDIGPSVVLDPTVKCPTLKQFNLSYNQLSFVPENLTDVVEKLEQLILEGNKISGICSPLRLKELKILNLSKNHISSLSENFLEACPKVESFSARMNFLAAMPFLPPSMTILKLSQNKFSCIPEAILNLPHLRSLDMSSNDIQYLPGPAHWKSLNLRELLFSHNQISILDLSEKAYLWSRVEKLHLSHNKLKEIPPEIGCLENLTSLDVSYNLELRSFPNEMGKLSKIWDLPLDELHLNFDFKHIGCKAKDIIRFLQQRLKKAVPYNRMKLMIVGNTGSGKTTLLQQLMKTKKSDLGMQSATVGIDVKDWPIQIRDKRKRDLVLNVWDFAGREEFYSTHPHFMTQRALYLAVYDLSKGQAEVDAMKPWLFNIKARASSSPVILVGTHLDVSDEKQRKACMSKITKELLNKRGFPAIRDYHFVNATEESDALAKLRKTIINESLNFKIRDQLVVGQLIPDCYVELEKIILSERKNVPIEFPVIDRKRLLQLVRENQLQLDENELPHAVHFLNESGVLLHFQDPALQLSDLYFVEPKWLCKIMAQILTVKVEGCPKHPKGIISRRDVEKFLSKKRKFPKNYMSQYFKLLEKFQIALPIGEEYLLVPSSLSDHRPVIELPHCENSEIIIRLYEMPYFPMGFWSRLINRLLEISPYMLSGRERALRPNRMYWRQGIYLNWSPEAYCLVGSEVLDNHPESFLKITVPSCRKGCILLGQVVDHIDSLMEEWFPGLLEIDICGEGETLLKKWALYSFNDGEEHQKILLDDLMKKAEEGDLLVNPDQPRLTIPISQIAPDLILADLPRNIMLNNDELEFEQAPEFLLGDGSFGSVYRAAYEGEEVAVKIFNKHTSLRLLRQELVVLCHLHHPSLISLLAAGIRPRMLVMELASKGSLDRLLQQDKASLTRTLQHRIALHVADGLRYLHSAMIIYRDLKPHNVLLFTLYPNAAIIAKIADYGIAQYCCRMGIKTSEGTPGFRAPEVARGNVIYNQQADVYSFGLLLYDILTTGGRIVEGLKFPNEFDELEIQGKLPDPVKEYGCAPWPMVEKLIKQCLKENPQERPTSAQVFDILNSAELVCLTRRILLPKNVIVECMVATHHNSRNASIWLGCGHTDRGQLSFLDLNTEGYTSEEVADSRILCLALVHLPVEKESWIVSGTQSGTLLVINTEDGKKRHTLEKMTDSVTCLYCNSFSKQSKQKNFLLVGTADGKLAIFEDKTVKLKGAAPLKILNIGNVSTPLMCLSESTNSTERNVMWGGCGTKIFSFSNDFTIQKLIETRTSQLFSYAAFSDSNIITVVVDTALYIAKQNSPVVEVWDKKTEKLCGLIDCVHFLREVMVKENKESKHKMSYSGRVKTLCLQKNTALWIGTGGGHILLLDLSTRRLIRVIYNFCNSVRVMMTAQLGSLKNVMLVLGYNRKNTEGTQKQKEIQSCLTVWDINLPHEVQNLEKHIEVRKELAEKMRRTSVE
pIC50: −log10 of the molar value. Counter-ions that a name gives are not always drawn.
Recorded measurements of pIC50, one per entry

Some entries whose results are on file:
>>> observed("COc1cc(P2(=O)CCN(C3CC3)CC2)ccc1Nc1cc(NC2CCC2)c2c(C(F)(F)F)c[nH]c2n1")
"6.00 to 6.52"
>>> observed("COc1cc(S(=O)(=O)N2CCOCC2)ccc1Nc1cc(C2CC2)c2c(C(F)(F)F)c[nH]c2n1")
"6.00 to 6.52"
>>> observed("CCNc1cc(Nc2ccc(S(=O)(=O)N3CCC(N4CCOCC4)CC3)c3c2OCC3)nc2[nH]cc(C(F)(F)F)c12")
"> 7.00"
>>> observed("COc1cc(S(=O)(=O)N2CCC(N3CCOCC3)CC2)ccc1Nc1cc(NC2CC2)c2c(C(F)(F)F)c[nH]c2n1 [Example 188, trifluoroacetate]")
"> 7.00"
>>> observed("CCNc1cc(Nc2ccc(P3(=O)CCN(C4CC4)CC3)cc2OC)nc2[nH]cc(C(F)(F)F)c12")
"6.52 to 7.00"

Okay, next one:
Summary for this compound, `CNc1cc(Nc2ccc(C(=O)N3CCC(N4C[C@@H]5C[C@H]4CO5)CC3)c3c2OCC3)nc2[nH]cc(C(F)(F)F)c12` : pIC50 is > 7.00

Where do these numbers come from? They come from patent US12240844B2.
